Molecular target: Nicotinamide N-methyltransferase (Homo sapiens)
Assay: Primary Screen for Target Class Profiling of Small Molecule Inhibitors of Methyltransferases; note: % is set by controls: 0 for no effect and ±100 for the full control effect
Conditions: purified enzyme, MTase-Glo SAH luminescence; measured here: NNMT inhibition; at 40 µM; stronger effect = lower value
Among all 25,000 compounds or so, about 970 (3.9%) were called active. Not shown: some 8% with an inconclusive outcome. For the sample, actives were picked, then their nearest neighbours and some compounds at random.
OUTCOME MEASURE: activity change, negative = inhibition (%)
Numeric only. Scale: %

MOLECULE	MEASURED RESULT
CCn1ccnc1CN(C)C(=O)c1cc(COc2ccccc2F)[nH]n1	-4
Cc1cccc(CCNC(=O)c2cc3n(n2)CC(C)(C(=O)NCc2ccccc2)N(C)C3=O)c1 (stereo not drawn)	3.49
CC(=O)N(C1CCOCC1)C1CCN(S(=O)(=O)c2ccc3c(c2)OCCO3)CC1	5.83

## Input Enter reported activity change, negative = inhibition observed with Nicotinamide N-methyltransferase (Homo sapiens) for COC[C@H]1NC(=O)CC[C@H]1C(=O)N1CCN(c2cccc(C)c2)CC1
## Output -13.6

## Input Enter reported activity change, negative = inhibition observed with Nicotinamide N-methyltransferase (Homo sapiens) for Cc1cnc(-c2ccncc2)n1CCN
## Output -6.93

## Input Enter reported activity change, negative = inhibition observed with Nicotinamide N-methyltransferase (Homo sapiens) for CCc1ccc(NS(=O)(=O)c2cc3c(cc2C)n(C)c(=O)n3C)cc1
## Output -13.9

## Input Enter reported activity change, negative = inhibition observed with Nicotinamide N-methyltransferase (Homo sapiens) for Cc1cc(C)c(S(=O)(=O)NCCc2nc(-c3ccc(Cl)cc3)n[nH]2)cc1C
## Output -4.42

## Input Enter reported activity change, negative = inhibition observed with Nicotinamide N-methyltransferase (Homo sapiens) for CC(C)Cn1c(=O)c2ccccc2n2c(=O)n(Cc3ccccc3)nc12
## Output -9.64

## Input Enter reported activity change, negative = inhibition observed with Nicotinamide N-methyltransferase (Homo sapiens) for O=C(N[C@@H]1CN(C2CCOCC2)CC[C@@H]1CO)c1ccccc1
## Output -17.2

## Input Enter reported activity change, negative = inhibition observed with Nicotinamide N-methyltransferase (Homo sapiens) for Cc1cccc(-c2nnn3c2nc(N2CCC(C)CC2)c2ccccc23)c1
## Output -1.89

## Input Enter reported activity change, negative = inhibition observed with Nicotinamide N-methyltransferase (Homo sapiens) for CCCC1c2ccc(C)n2CCN1C(=O)Nc1ccc(OCC)cc1 (stereo not drawn)
## Output 2.78

## Input Enter reported activity change, negative = inhibition observed with Nicotinamide N-methyltransferase (Homo sapiens) for Cc1ccc(C)c(Cn2nc3n(C)c(=O)c4ccc(C(=O)NC5CCCCC5)cc4n3c2=O)c1
## Output 5.92

## Input Enter reported activity change, negative = inhibition observed with Nicotinamide N-methyltransferase (Homo sapiens) for CCCN1C(=O)c2c(C(=O)NCc3ccc(OC(C)C)cc3)ncn2CC1(C)C(=O)NCc1ccccc1 (stereo not drawn)
## Output 0.527

###

Biological target: Histamine N-methyltransferase (Homo sapiens)
Test: Primary Screen for Target Class Profiling of Small Molecule Inhibitors of Methyltransferases; note: % is set by controls: 0 for no effect and ±100 for the full control effect
Conditions: purified enzyme, MTase-Glo SAH luminescence; measured here: HNMT inhibition; at 40 µM; stronger effect = lower value
Out of some 25,000 compounds screened, about 970 (3.9%) were called active. Not shown: some 8% with an inconclusive outcome. The sample holds actives, similar compounds and a random draw of the others, so the mix is not that of the screen.
OUTCOME MEASURE: activity change, negative = inhibition (%)
Numeric only. Scale: %

## Input Enter reported activity change, negative = inhibition observed with Histamine N-methyltransferase (Homo sapiens) for CC(C)NC(=O)c1ccccc1OCC1CCCN(Cc2cccnc2)C1 (centres undefined)
## Output -2.4
